test system: NCI-H226 lung; assay: NCI-60 one-dose screen, 48 h (100 = growth as untreated, 0 = no growth, -100 = all killed); settings: 10 µM
About 83,000 compounds went through this panel and 20% of them were active in at least one assay; those are over-represented in the sample as a whole.
test_readout: growth (%)
Entry rule: numbers only, all in %.

Look over these answered cases.
INSERT INTO assay_data (smiles_data, target_desc, unit_of_measure, recorded_number) VALUES
  ('COc1ccc2[nH]c(O)c(N=NC(=O)COc3ccc(NC(=O)Nc4ccc(Cl)cc4)cc3)c2c1', 'NCI-H226 lung', '%', -38.5),
  ('O=C(CNc1nc(-c2ccccc2)cs1)Nc1ccc(Br)cc1', 'NCI-H226 lung', '%', -58.6),
  ('O=C(Nc1cccc(C(F)(F)F)c1)c1cncc(C#Cc2cnc3ccc(N4CCOCC4)nn23)c1', 'NCI-H226 lung', '%', -4.93),
  ('O=C(/C=C/Nc1ccc(F)cc1F)c1ccc2c(c1)Nc1ccccc1S2', 'NCI-H226 lung', '%', 53.2);

Moving on to the next compound.
-- ask What value of measured growth is listed for `Nc1nnc(-c2c[nH]c3ncccc23)c(-c2c[nH]c3ccc(Br)cc23)n1` ?
-- reply 63.6

* * *

test system: MOLT-4 leukemia; assay: NCI-60 one-dose screen, 48 h (100 = growth as untreated, 0 = no growth, -100 = all killed); details: 10 µM
About 83,000 compounds went through this panel and 20% of them were active in at least one assay; those are over-represented in the sample as a whole.
test_readout: growth (%)
Entry rule: numbers only, all in %.

Look over these answered cases.
INSERT INTO measurements (smiles_data, test_readout, recorded_number) VALUES
  ('CCCCSc1nc(Nc2ccc(/C(C)=N/NC(N)=S)cc2)c(C#N)c(-c2ccc(F)cc2)n1', 'growth', 63.6),
  ('CSc1nc(-c2cccc(C)c2)c2cc(-c3ccccc3)n(C)c2n1', 'growth', 16.8),
  ('N#Cc1ccc(-c2nn(-c3ccc(C(=O)O)cc3)cc2CNc2ccc(Cl)cc2)cc1', 'growth', 68.8);

-- ask What value of measured growth is listed for `O=C1Nc2ccc(Cl)cc2/C1=C/c1cccc(OCc2ccccc2)c1` ?
-- reply -20.6

-- ask And the next one, `COc1ccc2ncc(C#Cc3cncc(C(=O)Nc4ccc(CN5CCN(C)CC5)c(C(F)(F)F)c4)c3)n2n1` ?
-- reply -26.7

-- ask And the next one, `CN1CCN(c2ccc(C(=O)/C=C/c3cc(Br)ccc3F)cc2)CC1` ?
-- reply 24

-- ask And the next one, `COc1csc(/C=N/NC(=O)c2[nH]c3ccc(Br)cc3c2-c2ccccc2)c1` ?
-- reply 1.69

-- ask And the next one, `CC(C)c1ccc(C(=O)Nc2sc3c(c2C(N)=O)CCC(=O)C3=O)cc1` ?
-- reply 72.4

-- ask And the next one, `O=C(c1ccc([N+](=O)[O-])c([N+](=O)[O-])c1O)n1[nH]c(=O)c2ccccc2c1=O` ?
-- reply 36.3

-- ask And the next one, `Cc1ccc(C(=O)CSc2nnc(-c3c[nH]c4ccccc34)n2-c2ccccc2)cc1` ?
-- reply 61.7

* * *

system: OVCAR-8 ovarian; test: NCI-60 one-dose screen, 48 h (100 = growth as untreated, 0 = no growth, -100 = all killed); conditions: 10 µM
The panel holds about 83,000 compounds, 20% with a hit somewhere; the sample as a whole holds those more often.
Below, each of the compounds is paired with its reported growth value.
Entry rule: numbers only, all in %.

Look over these answered cases.
INSERT INTO results (compound, recorded_number) VALUES
  ('COC(=O)CC1CC1C1Cc2c(nc(N(C)S(C)(=O)=O)nc2C(C)C)-c2ccc(F)cc21 (configuration not stated)', 80.6),
  ('O=c1[nH]c2ccccc2cc1CSc1ccc(Nc2nccc(-c3ccc4c(c3)OCO4)n2)cc1', 75),
  ('CCCCCc1ccc(S(=O)(=O)N(C(C)=O)c2cc(-c3csc(N(C)C(C)=O)n3)ccc2N2CCN(C)CC2)cc1', 41.2),
  ('Cn1cc(/C=N/Nc2cccc(Cl)n2)c2ccccc21', 80.3);

-- ask GET /values?readout=growth&system=OVCAR-8 ovarian&item= CC1(c2ccccc2)NC(=O)N(CC(=O)Nc2ccc(C(=O)/C=C/c3ccccc3)cc2)C1=O (configuration not stated)
-- reply 65.1

-- ask And the next one, `CC(=C(c1ccc(OCCN2CCCCCC2)cc1)c1ccc(OCCN2CCCCCC2)cc1)c1ccc(Cl)cc1` ?
-- reply -95.3

-- ask And the next one, O=C1CCC(N2Cc3c(NCc4ccc(-c5ccccc5)cc4)cccc3C2=O)C(=O)N1 (configuration not stated) ?
-- reply 34.9
